system: TK-10; assay: NCI tumour cell line growth inhibition, 48 h
Activity calls are given as the source filed them. No stated cut-off is given here; in the data, active = GI50 up to about 1.1 µM and inactive = higher.
Classes used: active, inactive

{"columns": ["Compound", "Assigned Class"],
 "data": [
  ["C=C1C(=O)C23CC1CCC2C12CO[C@@]3(O)[C@@H](O)C1C(C)(C)C=CC2=O (some centres not stated)", "active"],
  ["CCC(c1ccc2cc(O)ccc2c1)C(C)(C)C(=O)O (configuration not stated)", "inactive"],
  ["Cc1cc(-c2nc3ccccc3s2)ccc1N", "active"],
  ["Cc1cc(-c2nc3ccccc3s2)ccc1NS(=O)(=O)O", "inactive"],
  ["CC(NS(=O)(=O)c1ccc(Cl)cc1)C(=O)O (configuration not stated)", "inactive"],
  ["OC1CC2CCC(C1)N2CCCN1c2ccccc2Sc2ccc(Cl)cc21 (configuration not stated)", "inactive"],
  ["O=C(c1ccccc1)C(c1ccccc1)C1(O)C(=O)Nc2c(Cl)cc(Cl)cc21 (configuration not stated)", "inactive"],
  ["O=C(Nc1ccccc1C(=O)Nc1nccs1)c1ccccc1", "inactive"],
  ["COc1cccc(C2c3cc4c(cc3OC(NNc3ccccc3)C2C)OCO4)c1OC (configuration not stated)", "inactive"],
  ["COc1cc2c(c3c1c(=O)c1ccccc1n3C)C=C([N+](=O)[O-])C(C)(C)O2", "inactive"],
  ["CCN(CC)CCOC(c1ccccc1)c1ccccc1.CCOC(=O)Nc1ccc(S(=O)(=O)NCCCl)cc1.CCOC(=O)Nc1ccc(S(=O)(=O)NCCCl)cc1.Nc1ccc(C(=O)O)c(O)c1", "inactive"],
  ["CC(C)(C)n1c(=O)n2n(c1=O)C1c3cccc4cccc(c34)C2C2c3cccc4cccc(c34)C1n1c(=O)n(C(C)(C)C)c(=O)n12", "inactive"],
  ["O=C(CCCN1CCC2(CC1)CC(=O)N(N1CCCCCC1)C2=O)c1ccccc1", "inactive"],
  ["Cc1ccc(/C=N/NS(=O)(=O)c2ccccc2)cc1", "inactive"],
  ["CCCCc1ccc(-n2sc3ncc(C)cc3c2=O)cc1", "inactive"],
  ["O=C(O)C1CCCN1Cc1c[nH]c2ccccc12 (configuration not stated)", "inactive"],
  ["Cc1ccc(C(=O)O)cc1NC(=O)c1cc(/C=C/c2ccccc2)[nH]c(=S)n1", "inactive"],
  ["Nc1nc(Cl)cc(NCC2(O)CCC2)n1", "inactive"],
  ["COC(=O)CCSC(=O)Nc1ccccc1Cl", "inactive"],
  ["O=C1CS/C(=N/N=C/c2cn(Cc3ccc(Cl)cc3Cl)c3ccccc23)N1", "inactive"],
  ["CC#CC1/C(=C\\C(=O)OC)CCCC1O (configuration not stated)", "inactive"],
  ["COc1ccc(/N=C2\\C(=O)C3=C(OC(C)(C)CC3)c3ccccc32)cc1", "inactive"]
]}
